- System: MS2 coat protein
- procedure_text: apparent KD of MS2 coat protein; higher = weaker reporter binding
- condition_label: Eterna round: R107; input ligand: arginine 13.2 mM
readout_name: apparent KD of MS2 coat protein (nM)
Supply the numeric figure in nM, leaving out any unit text.

Please report the measured apparent KD of MS2 coat protein for CAAGAAUGACGUACAGAUAACAAUAACGAUACCAGUACAUCAUUAUACCCUUGGCAGCGUUUCACAUGAGGAUCACCCAUGUACA [theeternabot_exclusion_MS2_Theo_A_14]
15.4

Please report the measured apparent KD of MS2 coat protein for CGUGGUGGGACGGAUACCAGCCACCGCGGCAACGCAACAUGAGGAUCACCCAUGUUGGGUGGCCCUUGGCAGCUGUCCUGCGGCG [#1 Same State - Theophylline B Attempt #26 (HarryS)]
9.91

Please report the measured apparent KD of MS2 coat protein for UCUUACUUGGUAGAUACCAGCGUGUUAUCUUUCUUUUGACAUGAGGAUCACCCAUGUAUAUGCCCUUGGCAGCUGCGUAGUGUGU [#03 Same State - Theophylline B]
21.6

New cases:
Please report the measured apparent KD of MS2 coat protein for UCGCAUUGCUCAGAUACCAGACAUGAGGAUCACCCAUGUACCAAGGUACCCGAAAGGAAUGUCCCUUGGCAGCUGAGCAAUGCGU [MAT - Exclusion Theophlline B - Mod of Eli - D19]
10.5

Please report the measured apparent KD of MS2 coat protein for ACAUGAGGAUCACCCAUGUAAUGGCACGAUACCAGCUGAUCCCGUGGCCCUUGGCAGCGUCCGGUGUGGUCCGCCGGGUUGGACC [HHHMULLIN]
59

----------
- System: K4 kissing-loop RNA reporter;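 also: bound reporter read as fluorescence of individual clusters on recovered sequencing chips by microscopy, with normalized cluster intensities fitted with a binding model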
- procedure_text: apparent KD of K4 kissing-loop reporter; higher = weaker reporter binding
- condition_label: Eterna round: R107; input ligand: tryptophan 2.4 mM
Kind request: treat 200 nM as inclusive, so apparent KD of K4 kissing-loop reporter at 200 nM or higher is criterion met, anything lower is criterion not met.

Kindly determine if apparent KD of K4 kissing-loop reporter recorded for UGACAUUGCUCAGAUACCAGUCAUGAGGAUCACCCAUGGGCCAAAACGUACUAAAUAAAUGACCCUUGGCAGCUGAGCAAUGUCU [TheoBX 13] is above or exactly 200 nM.
criterion not met

Kindly determine if apparent KD of K4 kissing-loop reporter recorded for CUAGGCAACACAGGAUAUGUCCGAGUGAUGUUCGAGCCUUUCCAUUGACGAAAUUAAUGGUGGGUGACAGAAGGGUGAGUGCUGA [Xezaqu] is above or exactly 200 nM.
criterion met

Turning now to a further sequence:
Kindly determine if apparent KD of K4 kissing-loop reporter recorded for GGGACGCUAGCUCGAAUGUAGUGAUUUGAUACCAGCCUGUCACUUGGCCCUUGGCAGCAAAGCAGAGUGAUGUUCUGACCAACCU [theeternabot_sameState_KL_Theo_A_47] is above or exactly 200 nM.
criterion not met

----------
- Test system: MS2 coat protein
- procedure_text: apparent KD of MS2 coat protein; designed switch direction (-1 OFF switch, 1 ON switch): 1; higher = weaker reporter binding
- condition_label: Eterna round: R95; input ligand: none
Kind request: treat 70 nM as inclusive, so apparent KD of MS2 coat protein at 70 nM or higher is yes (1), anything lower is no (0).

Kindly determine if apparent KD of MS2 coat protein recorded for AAUUAUUGACAUGAGGAUCACCCAUGUAAAGCAUGGAUUAACAAGCUACAAGCUUUUUGCUCGUCUUAUCCUAUAGG [Improved Bojan's design] (puzzle: Sensor for hsa-mir-208a version 2) is above or exactly 70 nM.
no (0)

Reference source for all entries: the supplement of paper PMC9170038
